FYI, the data here is from patent US20230247992A1.

Tested on: Aedes aegypti
Test: in vitro Warm Body assay, substance applied on glass Petri dish on top of the warm body (deterrence and repellence)
Type: in vivo
Conditions: 1% in ethanol; ethanol control 67.0±8.8 landings
y means recorded number of mosquitoes landing within 2 minutes on the warm body is 2 or above; n means it is below 2.

C/C=C/c1ccc(O)c(OC)c1 [2-methoxy-4-[(E)-prop-1-enyl]phenol] | n
CCCCN(CCC(=O)OCC)C(C)=O [ethyl 3-[acetyl(butyl)amino]propanoate, reference compound] | y
CCC=CCC1C(=O)CCC1CC(=O)OC (centres unmarked) | n

Is number of mosquitoes landing within 2 minutes on the warm body for CCN(CC)C(=O)c1cccc(C)c1 [N,N-diethyl-3-methylbenzamide, reference compound] at or above 2?
y

Note, next up: O=C1CCC2CCCCC2O1 (centres unmarked) [3,4,4a,5,6,7,8,8a-octahydrochromen-2-one]
n

Request: "COC(C)(C)[C@H]1CC=C(C)CC1"
y

Try "CC1=CC[C@@H]2[C@H](C1)C2(C)C" next.
y

Also COc1ccc(COC(C)=O)cc1 [(4-methoxyphenyl)methyl acetate] , if possible.
y

Queued: "OCCc1ccccc1"
n
